The following compounds are shown together with reported TGI values.
System: UO-31 renal
Experiment: NCI tumour cell line growth inhibition, 48 h
Endpoint: TGI

{"Query smiles": "COc1cc2cnc3c4cc(OCc5ccccc5)ccc4ccc3c2cc1OC", "Measured value": "> 100 µM"}
{"Query smiles": "O=C[C@@H](CO)O[C@H](C=O)n1cnc2c(=O)[nH]cnc21", "Measured value": "1420 µM"}
{"Query smiles": "CC(=O)[O-].N.N.N.N.[Co+3].[O-][Cl+3]([O-])([O-])[O-].[OH3+]", "Measured value": "> 100 µM"}
{"Query smiles": "Cc1ccc(C)c(COCCOCn2cc(N3CCOCC3)c(=O)[nH]c2=O)c1", "Measured value": "> 100 µM"}
{"Query smiles": "O=c1/c(=N\\Nc2ccccc2)c2cccc3ccc4cccc1c4c32", "Measured value": "> 100 µM"}
{"Query smiles": "CN(C)CCCNC(=O)N/N=C/c1ccccc1", "Measured value": "> 100 µM"}

---

Tested on: ACHN renal
Assay: NCI tumour cell line growth inhibition, 48 h
Endpoint: TGI

{"Compound": "c1ccc2c(c1)cc1ccc3cccc4ccc2c1c34", "Test system": "ACHN renal", "Endpoint": "TGI", "Measured value": "> 100 µM"}
{"Compound": "N#Cc1cccc(N2C(=O)C3C4C=CC(C3C2=O)C2C(=O)N(c3cccc(C#N)c3)C(=O)C42)c1 (configuration not stated)", "Test system": "ACHN renal", "Endpoint": "TGI", "Measured value": "55.2 µM"}
{"Compound": "CCOC(=O)c1csc(NC(=O)CCN2CCCC2)n1", "Test system": "ACHN renal", "Endpoint": "TGI", "Measured value": "> 100 µM"}
{"Compound": "CC1=C(C(=O)OCCO[N+](=O)[O-])C(c2ccccc2[N+](=O)[O-])C(C(=O)OC(C)C)=C(C)N1 (configuration not stated)", "Test system": "ACHN renal", "Endpoint": "TGI", "Measured value": "87.6 µM"}
{"Compound": "O=C1CC[C@@]23CC(=O)O[C@@H]2CCCC3C1 (some centres not stated)", "Test system": "ACHN renal", "Endpoint": "TGI", "Measured value": "> 100 µM"}
{"Compound": "CN1C2=Nc3n(c4ccccc4[n+]3C)CN2c2ccccc21", "Test system": "ACHN renal", "Endpoint": "TGI", "Measured value": "> 100 µM"}
{"Compound": "c1cncc(CSc2nc3ccccc3nc2-c2cccs2)c1", "Test system": "ACHN renal", "Endpoint": "TGI", "Measured value": "> 100 µM"}
{"Compound": "CCCCN(CCCC)CC(C(C)=O)C(c1ccccc1)c1c(O)c2ccccc2oc1=O (configuration not stated)", "Test system": "ACHN renal", "Endpoint": "TGI", "Measured value": "> 100 µM"}
{"Compound": "CCOC(=O)c1csc(NC(=O)CCN2CCN(C)CC2)n1", "Test system": "ACHN renal", "Endpoint": "TGI", "Measured value": "> 100 µM"}
{"Compound": "O=C1C=CC(=O)c2c(O)c(N3CCC[C@@H]3CO)c(Cl)c(O)c21", "Test system": "ACHN renal", "Endpoint": "TGI", "Measured value": "2.96 µM"}
{"Compound": "CCn1c(-c2nonc2N)nc2c(N3CCCC3)nccc21", "Test system": "ACHN renal", "Endpoint": "TGI", "Measured value": "> 25 µM"}
{"Compound": "O=C1N=C(Nc2nc(-c3csc(NC4=NC(=O)/C(=C\\c5ccccc5)S4)n3)cs2)S/C1=C/c1ccccc1", "Test system": "ACHN renal", "Endpoint": "TGI", "Measured value": "46.3 µM"}
{"Compound": "COC(C)C(O)(C(=O)OCC1=CCN2CCC(O)C12)C(C)(C)O (configuration not stated)", "Test system": "ACHN renal", "Endpoint": "TGI", "Measured value": "> 100 µM"}
{"Compound": "CCOC(=O)/C=C/c1cccc(F)c1", "Test system": "ACHN renal", "Endpoint": "TGI", "Measured value": "> 100 µM"}
{"Compound": "COc1ccc2nc3cc(Cl)ccc3c(Nc3cc(CN4CCCC4)c(O)c(CN4CCCC4)c3)c2n1", "Test system": "ACHN renal", "Endpoint": "TGI", "Measured value": "10.3 µM"}
{"Compound": "Nc1c(N2CCOCC2)c(=O)nc2[nH]/c(=C\\c3ccccc3O)c(=O)n12", "Test system": "ACHN renal", "Endpoint": "TGI", "Measured value": "> 100 µM"}
{"Compound": "NC(=O)C1CCN(Cc2c(Cl)c(Cl)c(CN3CCC(C(N)=O)CC3)c(Cl)c2Cl)CC1", "Test system": "ACHN renal", "Endpoint": "TGI", "Measured value": "> 100 µM"}
{"Compound": "CC1(C)N=C(N)N=C(N)N1c1cccc(Cl)c1", "Test system": "ACHN renal", "Endpoint": "TGI", "Measured value": "> 100 µM"}
{"Compound": "C=C1C(=O)O[C@H]2C[C@@H]1C(=O)CC(C)CCCC(C)=CCC[C@@]2(C)O (some centres not stated)", "Test system": "ACHN renal", "Endpoint": "TGI", "Measured value": "> 25 µM"}
{"Compound": "CCOC(=O)CN1C(=O)c2cc([N+](=O)[O-])cc3cc([N+](=O)[O-])cc(c23)C1=O", "Test system": "ACHN renal", "Endpoint": "TGI", "Measured value": "> 100 µM"}
{"Compound": "CN(C)CCCNc1nc2ccccc2c2[nH]c3ccccc3c12", "Test system": "ACHN renal", "Endpoint": "TGI", "Measured value": "2.24 µM"}
{"Compound": "O=C(c1ccc([N+](=O)[O-])cc1)N1CCCC1", "Test system": "ACHN renal", "Endpoint": "TGI", "Measured value": "> 100 µM"}
